B1: 6NMW (parent)
chain: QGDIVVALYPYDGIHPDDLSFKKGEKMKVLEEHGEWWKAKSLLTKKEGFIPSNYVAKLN

Variants of: B1
Test protocol: folding stability dG (cDNA display proteolysis); higher = more stable
Experimental context: PBS, room temperature
The reader will find reported folding stability dG values listed item by item below.
Express your answer in kcal/mol, writing the number without its unit.

Some variants with recorded folding stability dG:
>  <Mutations>
P10H

>  <Recorded result>
3.93

$$$$
>  <Mutations>
D12M

>  <Recorded result>
3.84

$$$$
>  <Mutations>
Y54T

>  <Recorded result>
1.16

$$$$

Value of folding stability dG reported for the variant N59V is 3.95
